Cited source: the METLIN SMRT retention time set (Domingo-Almenara et al. 2019)

assay: gradient 5% acetonitrile 3 min, to 50% in 2 min, to 85% in 15 min, held 3 min, 100 µL/min; conditions: column: Zorbax Extend-C18 2.1 x 50 mm; eluents: water / acetonitrile, 0.1% formic acid
Quick reference: RP-LC retention time of the listed items.
Give the value in s but do not write s after it.

The cases that follow already have their RP-LC retention time on record.
* COc1ccc2[nH]c(=O)c(CCC(=O)NC3CCN(Cc4ccccc4)CC3)cc2c1 | 596
* COc1ccc(-n2c(CN3CCN(C(=O)NC(C)C)CC3)nc3cccnc32)cc1 | 595

Just so you know, measured RP-LC retention time for O=C(NCCc1ccsc1)c1ccc(Cl)c(Cl)c1 came out at 933

For this molecule ( CCN(CC)c1ccc(C(=O)O)cc1NC(=O)c1cccs1 ), measured RP-LC retention time is 835

For this molecule ( CCN1C(=O)CCc2cc(NS(=O)(=O)Cc3cccc(Cl)c3)ccc21 ), measured RP-LC retention time is 846

Field RP-LC retention time (entry CSCC(CO)NC(=O)/C=C/c1c(C)[nH]c(=O)[nH]c1=O (stereo not given) ) reads 564

Short answer for O=C(NC1CCCCC1)N1CCCC(c2nnnn2-c2ccccc2)C1 (stereo not given) : RP-LC retention time was 818

For this molecule ( O=C(c1cn2ccnc(-c3ccccc3)c2n1)N1CCN(c2ncccn2)CC1 ), measured RP-LC retention time is 702

Item: COc1ccc(CCc2nc3nccc(-c4cccc(OC)c4)n3n2)cc1 | RP-LC retention time: 879

Just so you know, measured RP-LC retention time for CCOc1nc2ccccc2nc1N1CCCC(C(=O)Nc2cccc(Cl)c2)C1 (stereo not given) came out at 1290

---

experiment: gradient 5% acetonitrile 3 min, to 50% in 2 min, to 85% in 15 min, held 3 min, 100 µL/min; settings: column: Zorbax Extend-C18 2.1 x 50 mm; eluents: water / acetonitrile, 0.1% formic acid
READOUT KIND: RP-LC retention time

Example compounds with recorded RP-LC retention time:
• Cc1ccc(CC(=O)N2CCc3c(c(C(=O)N4CCCC(C(=O)NC5CC5)C4)nn3C)C2)cc1 (stereo not given) = 681 s
• O=C(Nc1cc(F)ccc1F)N1CCCC(Cn2c(C3CC3)nc3cccnc32)C1 (stereo not given) = 689 s
• Cc1oc(-c2ccc(Cl)cc2)nc1CN1CCC(C(=O)NCc2ccccn2)CC1 = 584 s
• CCOc1ccccc1CN1CCc2nc(Nc3ccc(F)cc3)ncc2C1 = 616 s

--- query ---
# RP-LC retention time of Cn1cccc1CN(C(=O)c1ccc(F)cc1Cl)C1CC1 = 915 s

---

The entries below are paired with their reported RP-LC retention time.
assay: gradient 5% acetonitrile 3 min, to 50% in 2 min, to 85% in 15 min, held 3 min, 100 µL/min; details: column: Zorbax Extend-C18 2.1 x 50 mm; eluents: water / acetonitrile, 0.1% formic acid
# number then unit; no other words

These solved cases illustrate the format of a correct answer.
* CCOc1ccc(-c2cn3ccn(-c4cc(C)cc(C)c4)c(=O)c3n2)cc1 | 965 s
* COC(=O)c1cccc(C(=O)Nc2ccc(F)cc2C)n1 | 853 s
* CCC(=O)Nc1nc(-c2ccc3c(c2)NC(=O)CO3)cs1 | 704 s
* CCc1noc(-c2nc(-c3ccc(OC)c(F)c3)no2)n1 | 926 s
* O=C(COC(=O)c1cccc([N+](=O)[O-])c1)c1ccc(NC(=O)c2ccccc2)cc1 | 921 s
* O=C(NCc1ccc(F)cc1F)C1CCN(c2cn[nH]c(=O)c2)CC1 | 639 s

According to the records, this compound O=C1C2N=NN(Cc3nc(-c4ccccc4Cl)no3)C2C(=O)N1c1ccc2c(c1)OCO2 (stereo not given) displays RP-LC retention time of 1020 s

The reported value for CCOC(=O)CCC(=O)N1CC(c2nc(C)no2)C1 in terms of RP-LC retention time is 603 s

RP-LC retention time in this record for CCn1c(=O)c2ccn(CC(=O)Nc3cc(C)cc(C)c3)c2n(CC)c1=O : 792 s

Item: CCOCC(=O)Nc1ccc(CC(=O)NCC(F)(F)F)cc1 | RP-LC retention time: 644 s

---

Overview of reported RP-LC retention time across a group of molecules:
test: gradient 5% acetonitrile 3 min, to 50% in 2 min, to 85% in 15 min, held 3 min, 100 µL/min; conditions: column: Zorbax Extend-C18 2.1 x 50 mm; eluents: water / acetonitrile, 0.1% formic acid

Answered examples (8):
- CCC(CC)C(=O)Nc1nc(-c2ccc3c(c2)NC(=O)CO3)c(C)s1: 910 s
- CC(C)N1C(=O)CSc2cnn(CC(=O)NC3CCCC3)c(=O)c21: 688 s
- O=C(NC1CCCC1)c1cccn1Cc1noc(-c2ccccc2)n1: 981 s
- Cc1nc(-c2ccccc2)cc2nn(CC(=O)NC(C)CCc3ccccc3)c(=O)n12 (centres undefined): 989 s
- CCS(=O)(=O)N1CC(=O)N(c2ccc(F)cc2)C(C)(C(=O)NC2CCCCCCC2)C1 (centres undefined): 938 s
- CCC(C)C(NC(=O)Cc1ccccc1F)C(=O)Nc1nc2ccccc2[nH]1 (centres undefined): 736 s
- Cc1cc2nc(C(F)(F)F)c(=O)n(C(C)C(=O)NCCN3CCOCC3)c2cc1C (centres undefined): 683 s
- Cn1cc(C(=O)NCCC2=CCCCC2)c2nn(-c3ccccc3)c(=O)c-2c1: 991 s

Item: CCOc1ccc(S(=O)(=O)N2CCC(c3noc(-c4ccccc4C)n3)CC2)cc1 | RP-LC retention time: 1180 s

# molecule Cc1ccc(C)c(N2CCN(c3ccnc(SCC(=O)Nc4cccc(Cl)c4C)n3)CC2)c1 ; its RP-LC retention time = 1020 s

GET /value?item= CC1=NS(=O)(=O)N(C)C=C1C(=O)OCc1c(C)noc1C &field=RP-LC retention time returns 776 s

// sample CCCOc1nc2ccccc2nc1N1CCCC(C(=O)NC2CCCC2)C1 (centres undefined) , its RP-LC retention time was 1180 s

Sure, the documented RP-LC retention time for O=C(CCn1nnc2cc(-c3noc(COc4ccccc4)n3)ccc21)N1CCOCC1 is 826 s

Reported RP-LC retention time for Cc1ccc(Sc2nccnc2N2CCC(C(=O)N3CCOCC3)CC2)cc1 was 881 s

GET /value?item= COc1ccc(N2CCN(C(=O)c3cn(-c4ccc(NC(C)=O)cn4)cn3)CC2)cc1 &field=RP-LC retention time returns 617 s

// RP-LC retention time value for Cn1c(=O)n(C)c2cc(CNc3ccc4c(c3)OCO4)ccc21 : 630 s

Entry Cc1cc(S(=O)(=O)N2CCc3c(c(-c4nnc(-c5ccccc5)o4)nn3C)C2)ccc1F ; RP-LC retention time = 703 s

Record summary for COc1cccc(S(=O)(=O)N2CCOCCNC(=O)[C@@H]3CCC[C@@H]32)c1 : reported RP-LC retention time = 740 s

O=C(Nc1nc2ccccc2s1)c1ccc([N+](=O)[O-])cc1Cl has a reported RP-LC retention time of 877 s

---

test: gradient 5% acetonitrile 3 min, to 50% in 2 min, to 85% in 15 min, held 3 min, 100 µL/min; conditions: column: Zorbax Extend-C18 2.1 x 50 mm; eluents: water / acetonitrile, 0.1% formic acid
READOUT KIND: RP-LC retention time (s)
Write the value in s as a bare number.

Guide cases for RP-LC retention time, answers given:
• CC1=CN2C(c3cccc([N+](=O)[O-])c3)=NON(c3ccc(C)cn3)C2C=C1 (stereo not given) = 1190
• Cc1cccc(Nc2ccc(N3CCN(C(=O)c4cccs4)CC3)nn2)n1 = 579

// RP-LC retention time value for CN1C(=O)C(c2c(-c3ccc4ccccc4c3)[nH]c3[nH]c(=O)[nH]c(=O)c23)c2ccccc21 (stereo not given) : 721

The measured RP-LC retention time associated with COc1ccccc1N1CCN(C(=O)C2CCCN(c3cnc4nccnc4c3)C2)CC1 (stereo not given) reads 688

Entry Cc1cccc(NC(=O)Nc2nccn(-c3cccc(Cl)c3C)c2=O)c1 — recorded RP-LC retention time = 1110

---

experiment: gradient 5% acetonitrile 3 min, to 50% in 2 min, to 85% in 15 min, held 3 min, 100 µL/min; details: column: Zorbax Extend-C18 2.1 x 50 mm; eluents: water / acetonitrile, 0.1% formic acid
// reported RP-LC retention time for each item listed
Just the number in s, nothing appended.

* Cc1cc(C)c2sc(NC(=O)c3ccco3)nc2c1 | 881
* CCCC(=O)Nc1nc(C(=O)OCC)cs1 | 700
* CCCN1CCN(CCCNC(=O)c2c(-c3ccc(Br)s3)noc2C)CC1 | 609
* CC(C)NC(=O)C1(C)CC(c2ccccc2)=NO1 (stereo not given) | 799
* COCC1CN(C(=O)c2ccc(Cc3c(C)noc3C)o2)CC12CCNCC2 (stereo not given) | 586
* CC(C)(O)CC(=O)NCCn1ccc2ncnc(Nc3ccc(Oc4cccc(C(F)(F)F)c4)c(Cl)c3)c21 | 802
* CCC(=O)Nc1ccc(-n2cnc(C(=O)N3CCN(c4cccc(C)c4C)CC3)c2)nc1 | 855
* CC(C)n1ncc(NC(=O)Cc2ccc(Cl)cc2)c(N2CCOCC2)c1=O | 856
* O=C(NCCCc1ccccc1)C1CCN(S(=O)(=O)c2ccc(-c3noc(C4CC4)n3)cc2)CC1 | 1060

Looking up NC(=O)C1CCN(c2ccc3cccc(OCc4ccccc4Cl)c3n2)CC1 , I found its RP-LC retention time recorded as 593
